Data credit: patent US4497822A

- Test system: Aedes aegypti larvae
- ASSAY EXPLANATION: Insecticidal activity, larvae in treated water (Test 1 (b)), toxicity vs parathion
- Format: in vivo, mosquito (Aedes aegypti)
- MEASUREMENT PARAMETERS: early fourth instar larvae; final mortality when all larvae emerged as adults or died; 50% mortality basis; standard parathion = 100
Entries whose Toxicity Index A.a. is below 50 take label 1; entries at or above 50 take label 0.

Cc1ccc(SN(C(=O)NC(=O)c2ccccc2Cl)c2ccc(Oc3ccc(C(F)(F)F)cc3Cl)cc2)cc1; label 0
O=C(NC(=O)N(Sc1ccccc1[N+](=O)[O-])c1cc(Cl)c(Oc2ccc([N+](=O)[O-])cc2)c(Cl)c1)c1c(F)cccc1F; label 1
CC(C)c1ccccc1SN(C(=O)NC(=O)c1ccccc1Cl)c1ccc(OC(F)(F)F)cc1; label 1
Cc1ccccc1SN(C(=O)NC(=O)c1ccccc1Cl)c1ccc(Oc2ccc(C(F)(F)F)cc2Cl)cc1; label 0
O=C(NC(=O)N(Sc1ccc([N+](=O)[O-])cc1[N+](=O)[O-])c1ccc(Cl)cc1)c1c(F)cccc1F; label 0
O=C(NC(=O)N(Sc1ccc([N+](=O)[O-])cc1)c1ccc(OC(F)(F)F)cc1)c1ccccc1Cl; label 1
O=C(NC(=O)N(SC(Cl)(Cl)Cl)c1ccc(Oc2ccc(C(F)(F)F)cc2Cl)cc1)c1ccccc1Cl; label 0
CC(C)(C)c1ccc(SN(C(=O)NC(=O)c2c(F)cccc2F)c2ccc(Cl)cc2)cc1; label 1

Does `O=C(NC(=O)N(Sc1ccc(Br)cc1)c1ccc(Cl)cc1)c1c(F)cccc1F` have Toxicity Index A.a. strictly under 50? label 1

Does `Cc1cccc(SN(C(=O)NC(=O)c2c(F)cccc2F)c2ccc(C(F)(F)F)cc2)c1` have Toxicity Index A.a. strictly under 50? label 0

Does `O=C(NC(=O)N(Sc1ccc(Cl)cc1)c1ccc(Cl)cc1)c1c(F)cccc1F` have Toxicity Index A.a. strictly under 50? label 1

Does `O=C(NC(=O)N(Sc1ccc(Br)cc1)c1ccc(C(F)(F)F)cc1)c1c(F)cccc1F` have Toxicity Index A.a. strictly under 50? label 1

Does `O=C(NC(=O)N(SC(Cl)(Cl)Cl)c1ccc(Cl)cc1)c1c(F)cccc1F` have Toxicity Index A.a. strictly under 50? label 1
